- Target Under Test: SARM1 (Homo sapiens, UniProt Q6SZW1)
- Construct: made in house; host or cells: NRK1-HEK293T cells, transiently transfected; clarified lysate used unpurified
- Sequence (Q6SZW1 with tags, fused parts or gaps): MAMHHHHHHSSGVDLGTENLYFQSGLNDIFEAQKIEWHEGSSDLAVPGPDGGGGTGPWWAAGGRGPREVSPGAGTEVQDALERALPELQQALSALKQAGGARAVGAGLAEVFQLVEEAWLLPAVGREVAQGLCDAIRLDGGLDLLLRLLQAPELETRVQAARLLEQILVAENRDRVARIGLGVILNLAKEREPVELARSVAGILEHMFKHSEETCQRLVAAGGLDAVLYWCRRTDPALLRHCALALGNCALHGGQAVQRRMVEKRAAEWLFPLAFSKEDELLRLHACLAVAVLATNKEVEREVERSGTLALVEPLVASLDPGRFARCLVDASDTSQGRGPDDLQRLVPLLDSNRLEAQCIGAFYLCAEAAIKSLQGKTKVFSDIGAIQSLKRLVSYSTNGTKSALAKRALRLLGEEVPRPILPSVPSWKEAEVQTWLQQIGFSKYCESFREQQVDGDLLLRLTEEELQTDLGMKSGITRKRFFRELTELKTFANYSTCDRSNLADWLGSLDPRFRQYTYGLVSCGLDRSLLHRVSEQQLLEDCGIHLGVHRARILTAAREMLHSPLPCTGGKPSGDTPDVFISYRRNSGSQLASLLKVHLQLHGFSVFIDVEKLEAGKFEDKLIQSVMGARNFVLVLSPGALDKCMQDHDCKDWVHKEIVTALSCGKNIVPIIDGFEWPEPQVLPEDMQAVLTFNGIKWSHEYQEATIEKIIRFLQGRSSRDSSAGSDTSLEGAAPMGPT
- Assay Summary: ARM-SAM-TIR SARM1 IC50 assay (NADase activity, NAD+ cleavage)
- Assay type: biochemical
- Condition: ARM-SAM-TIR lysate 5 μg/mL from NRK1-HEK293T cells; 2 h pre-incubation; 5 μM NAD+; 2 hr room temperature; NAD+ and ADPR by RapidFire MS; read-out: SARM1 IC50
Attribute Measured: IC50

Q: I'd like to know its IC50. The compound in question is CNC(=O)c1cncc(NC)n1
Result: > 30 µM

Q: I'd like to know its IC50. The compound in question is COc1cncc(NCc2ccc(N3CCC(F)(F)CC3)nc2)n1
Result: 5 to 15 µM

Q: I'd like to know its IC50. The compound in question is COc1cncc(NCc2cnc3ccccc3c2)n1
Result: 5 to 15 µM

Q: I'd like to know its IC50. The compound in question is COc1cncc(NCc2cccc(C(N)=O)c2)n1
Result: 5 to 15 µM

Q: I'd like to know its IC50. The compound in question is c1cncc(CNc2cncc(OCC3CCCC3)n2)c1
Result: > 30 µM

Q: I'd like to know its IC50. The compound in question is COc1cncc(NCc2ccc(N)nc2)n1
Result: < 5 µM

Q: I'd like to know its IC50. The compound in question is CCOc1cncc(NC(=O)c2cccnc2)n1
Result: > 30 µM

Q: I'd like to know its IC50. The compound in question is Cn1cc(CNc2cncc(O)n2)cn1
Result: > 30 µM

Q: I'd like to know its IC50. The compound in question is CNc1cncc(OC)n1
Result: < 5 µM

Q: I'd like to know its IC50. The compound in question is CCOc1cncc(NC(C)c2ccccn2)n1 (stereo not shown)
Result: > 30 µM

Q: I'd like to know its IC50. The compound in question is COc1cncc(NCc2cccc(S(C)(=O)=O)c2)n1
Result: 15 to 30 µM

Q: I'd like to know its IC50. The compound in question is COc1cncc(NCc2ccc(S(=O)(=O)N(C)C)cc2)n1
Result: 15 to 30 µM

Q: I'd like to know its IC50. The compound in question is CCNc1cncc(NCc2cccnc2)n1
Result: 15 to 30 µM

Q: I'd like to know its IC50. The compound in question is COc1cncc(N(C)S(=O)(=O)c2ccccc2)c1
Result: > 30 µM

Q: I'd like to know its IC50. The compound in question is COc1cncc(NCc2ccoc2)n1
Result: 5 to 15 µM

Q: I'd like to know its IC50. The compound in question is COc1cncc(NCc2ccc(N3CCCCC3)nc2)n1
Result: 5 to 15 µM

Q: I'd like to know its IC50. The compound in question is COc1cncc(C(=O)Nc2ccccc2)n1
Result: > 30 µM

Q: I'd like to know its IC50. The compound in question is CCOc1cncc(NCc2ccccn2)n1
Result: > 30 µM

Q: I'd like to know its IC50. The compound in question is COc1cncc(S(=O)(=O)NCc2ccccc2)c1
Result: > 30 µM

Q: I'd like to know its IC50. The compound in question is COc1cncc(NCc2ccc(C(F)(F)F)nc2)n1
Result: 15 to 30 µM

Q: I'd like to know its IC50. The compound in question is CNc1cncc(Br)n1
Result: > 30 µM

Q: I'd like to know its IC50. The compound in question is CNc1cncc(NCCc2cnn(C)c2)n1
Result: 15 to 30 µM

Q: I'd like to know its IC50. The compound in question is COc1cncc(NCc2ccc(F)cc2)n1
Result: 5 to 15 µM

Q: I'd like to know its IC50. The compound in question is COc1cnc(C)c(NCc2cccnc2)n1
Result: > 30 µM

Q: I'd like to know its IC50. The compound in question is CNc1cncc(OCCCCN)n1
Result: > 30 µM

Q: I'd like to know its IC50. The compound in question is COc1cncc(C(=O)NCc2ccccc2)n1
Result: > 30 µM

Q: I'd like to know its IC50. The compound in question is COc1cncc(NCc2cnn(S(C)(=O)=O)c2)n1
Result: 5 to 15 µM

Q: I'd like to know its IC50. The compound in question is COc1cncc(NCc2ccc(C(C)(C)O)cc2)n1
Result: 5 to 15 µM

Q: I'd like to know its IC50. The compound in question is CCCCN1CCN(c2ccc(CNc3cncc(OC)n3)cn2)CC1
Result: 5 to 15 µM

Q: I'd like to know its IC50. The compound in question is COc1cc(NCc2ccc(S(N)(=O)=O)cc2)cnn1
Result: > 30 µM

Q: I'd like to know its IC50. The compound in question is COc1cncc(NCc2cccn2C)n1
Result: 15 to 30 µM

Q: I'd like to know its IC50. The compound in question is COc1cncc(NCc2cccc(S(N)(=O)=O)c2)n1
Result: 5 to 15 µM

Q: I'd like to know its IC50. The compound in question is CCN1CCN(c2ccc(CNc3cncc(OC)n3)cn2)CC1
Result: 5 to 15 µM

Q: I'd like to know its IC50. The compound in question is COc1cncc(NCc2ccc(-c3nnco3)cc2)n1
Result: 5 to 15 µM
